system: EBOV; test: organism not typed; format: cell-based, Zaire Ebolavirus (Mayinga strain)
readout_kind: Curve Class (EBOV)
No unit in the answer, please; the number alone is enough.

Cc1cc(-c2nn(-c3ccccc3F)cc2CN2CCN(c3ccncc3)CC2)c(C)s1 [MLS000733230]	1.3
Cc1ccc(NC(=O)ON=C2CCCC2)cc1 [MLS000569139]	1.4
COc1ccc(Nc2cc(C)nc3ccc(OC)cc23)cc1 [MLS001209453]	1.3
Cc1cc(Nc2ccc(Cl)cc2)nc(N2CCOCC2)n1 [MLS001029946]	1.6
CC(C)(CS(=O)(=O)[O-])NC(=O)CC[N+](C)(C)CCO [MLS000554255]	1.5

Let me know recorded Curve Class (EBOV) for CC(C)N1CCN(C(=O)c2ccc(OC3CCN(CCc4ccccc4)CC3)cc2)CC1 [MLS001101371] , thanks.
1.3

Let me know recorded Curve Class (EBOV) for COc1ccc2c(c1)c(CCN)c(C)n2Cc1ccccc1.Cl [MLS001030162] , thanks.
1.3

Let me know recorded Curve Class (EBOV) for Cc1cccc(C)c1OCC(O)CNC(C)c1ccccc1.Cl (stereo not drawn) [MLS001177927] , thanks.
1.5

Let me know recorded Curve Class (EBOV) for COc1ccccc1CCN1CCCC(CN(C)CC(C)(C)CO)C1 (stereo not drawn) [MLS001162808] , thanks.
1.3
